- subject-of-test: HA of influenza B virus ca B/Beijing/243/97 (victoria) (influenza B virus B/Beijing/243/97)
- assay-details: cell-based or functional assay
recorded-endpoint: Neutralization (Ave IC50 ug/ml) (µg/mL)

1. FBC-39 LTL (antibody, V domains shown) VH: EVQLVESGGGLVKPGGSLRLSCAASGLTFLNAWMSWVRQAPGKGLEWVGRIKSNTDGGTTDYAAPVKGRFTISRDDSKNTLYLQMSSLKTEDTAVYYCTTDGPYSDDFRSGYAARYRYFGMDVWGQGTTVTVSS VL: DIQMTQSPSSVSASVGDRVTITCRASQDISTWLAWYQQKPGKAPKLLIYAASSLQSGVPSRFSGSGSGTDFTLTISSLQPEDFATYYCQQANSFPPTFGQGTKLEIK	0.152
